The reported numbers originate from patent US10030016B2.

Target: PDK1 (Homo sapiens (Human))
Sequence (O15530 51-359): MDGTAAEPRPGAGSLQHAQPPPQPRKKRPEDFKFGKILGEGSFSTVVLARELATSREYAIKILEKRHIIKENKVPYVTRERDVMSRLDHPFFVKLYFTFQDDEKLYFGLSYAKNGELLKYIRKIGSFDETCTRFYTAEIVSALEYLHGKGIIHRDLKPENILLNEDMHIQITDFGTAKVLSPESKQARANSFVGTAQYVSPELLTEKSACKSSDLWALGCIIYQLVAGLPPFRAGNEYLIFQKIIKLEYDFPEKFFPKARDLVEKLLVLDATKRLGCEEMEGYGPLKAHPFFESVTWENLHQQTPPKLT
Assay: PDK1 kinase assay (coupled PDK1/AKT/FAM-crosstide assay, IMAP fluorescence polarization)
Format: biochemical
Settings: inhibition of phospo-PDK1 in vitro
Where a name gives a salt, the structure may show the parent alone.
Measured IC50 by item

// worked examples, IC50 included
[
  {
    "compound": "Nc1ncnc2ccc(-c3ccc(CNc4ncc([N+](=O)[O-])cc4C(=O)NCc4ccc(F)c(F)c4)s3)cc12 [Ex. 8.2]",
    "property.name": "IC50",
    "observed": "< 100 nM"
  },
  {
    "compound": "C[C@H](NC(=O)c1cccnc1NCc1ccc(-c2ccc3ncnc(N)c3c2)s1)c1cccc(F)c1 [Example 3.21, (TFA salt)]",
    "property.name": "IC50",
    "observed": "< 100 nM"
  },
  {
    "compound": "CC(C)Oc1cc(CNc2ncccc2C(=O)NCC2CC2)cc(-c2c[nH]c3ncc(C(=O)NC4CC4)cc23)c1 [Example 4.1.11]",
    "property.name": "IC50",
    "observed": "100 to 1000 nM"
  }
]

Answer with reported IC50 of N#Cc1cnc(NCc2ccc(-c3ccc4ncnc(N)c4c3)s2)c(C(=O)NCc2ccc(F)c(F)c2)n1 [Example 3.80, (TFA salt)] 100 to 1000 nM

Using the record for Cc1nc[nH]c1/C=C1\C(=O)Nc2cc(/C=C/CNc3ncccc3C(=O)NCc3ccc(F)c(F)c3)ccc21 [Example 15.7] , state its measured IC50. < 100 nM

Report IC50 for Nc1ncnc2[nH]cc(-c3ccc(CNc4ncccc4C(=O)NCc4ccc(F)c(F)c4)s3)c12 [Example 4.8] < 100 nM

Please look at this compound and report its IC50: C[C@H](NC(=O)c1cccnc1NCc1ccc(-c2ccc3ncnc(N)c3c2)s1)c1cncc(F)c1 [Example 3.59, (TFA salt)] < 100 nM

###

Test system: phospho-akt (Thr308) in PC-3 cells
Assay: Inhibition of phospho-akt (Thr308) in PC-3 cells, MSD phospho-akt 308 ELISA kit
Assay type: cell-based
Conditions: Homo sapiens; inhibition of P308 Akt in PC-3 cells using MSD, 2 hours, no serum; read-out: EC50
# EC50 per record follows

[
  {
    "molecule": "C[C@H](NC(=O)c1nc(C#N)cnc1NCc1ccc(-c2cnc(N)c(O[C@H]3CCC[C@@H]3N)n2)cc1)c1ccc(F)c(F)c1",
    "assayed.system": "phospho-akt (Thr308) in PC-3 cells",
    "EC50": "< 1000 nM"
  },
  {
    "molecule": "C[C@H](NC(=O)c1cc(C#N)cnc1NCc1ccc(-c2cnc(N)c(C(=O)NCC(O)CO)c2)cc1)c1ccc(F)cc1 (stereo partly shown)",
    "assayed.system": "phospho-akt (Thr308) in PC-3 cells",
    "EC50": "1000 to 10000 nM"
  },
  {
    "molecule": "N#Cc1cnc(NCc2ccc(-c3cnc(N)cn3)cc2)c(C(=O)NCc2cncc(F)c2)c1",
    "assayed.system": "phospho-akt (Thr308) in PC-3 cells",
    "EC50": "< 1000 nM"
  }
]

Respond only with EC50 recorded for `NCCNc1n[nH]c2ncc(-c3ccc(CNc4ncc(C(F)(F)F)cc4C(=O)NCc4ccc(F)c(F)c4)cc3)cc12` 1000 to 10000 nM
